assay.protocol: gradient 5% acetonitrile 3 min, to 50% in 2 min, to 85% in 15 min, held 3 min, 100 µL/min
conditions: column: Zorbax Extend-C18 2.1 x 50 mm; eluents: water / acetonitrile, 0.1% formic acid
For each record, write down the corresponding RP-LC retention time.
Give the quantity in s, number only.

## Task Specify RP-LC retention time for COc1cc(N2CC(CNS(C)(=O)=O)OC2=O)cc(OC)c1OC (stereo not given) and stop.
## Result 593

## Task Specify RP-LC retention time for COc1ccc(-n2c(=O)c(C(=O)NC(C)c3ccc(F)cc3)c(O)c3cccnc32)cc1 (stereo not given) and stop.
## Result 1220

## Task Specify RP-LC retention time for "Cc1nc(C(=O)NC2CCCCC2)c(C)o1" and stop.
## Result 767

## Task Specify RP-LC retention time for "CCOc1ccc(-c2csc3c(=O)n(Cc4cccnc4)cnc23)cc1OCC" and stop.
## Result 699

## Task Specify RP-LC retention time for "O=C([C@@H]1C[C@H](Oc2cccnc2)CN1C(=O)C1CCC1)N1CCCC1" and stop.
## Result 565

## Task Specify RP-LC retention time for "O=C1COc2cc(Cl)ccc2N1Cc1nc(-c2cccc(F)c2)no1" and stop.
## Result 1100

## Task Specify RP-LC retention time for "CC(C)CNC(=O)CCc1nc2ccccc2n(CC(=O)NCCCc2ccccc2)c1=O" and stop.
## Result 834

## Task Specify RP-LC retention time for COC(=O)c1ncn2c1C(=O)N(c1cccc(C)c1)C(C)(C(=O)NCc1ccc(C)cc1)C2 (stereo not given) and stop.
## Result 734

## Task Specify RP-LC retention time for "CN(C)c1ccc2c(c1)CN(C(=O)c1ccoc1)CCO2" and stop.
## Result 573

## Task Specify RP-LC retention time for "CN(C)CCNC(=O)c1ccnc(-c2ccsc2)c1" and stop.
## Result 573

## Task Specify RP-LC retention time for "COC(=O)c1ccc(Cl)cc1NC(=O)N1CCCn2nc(-c3cccs3)cc2C1" and stop.
## Result 1120

## Task Specify RP-LC retention time for "CCN1CCN(c2ccc(NC(=O)c3cccc(C)c3)cn2)C1=O" and stop.
## Result 742

## Task Specify RP-LC retention time for "CCn1cc(-c2nc(C)c(C(=O)NCc3ccccc3C)s2)c2cccnc21" and stop.
## Result 995

## Task Specify RP-LC retention time for "Cc1ccc(-c2nnc(SCC(=O)Nc3ccc(C)cc3Br)o2)cc1" and stop.
## Result 830

## Task Specify RP-LC retention time for "O=C(Nc1ccc(-c2nnc3n2CCCC3)cc1)C1CCC1" and stop.
## Result 622

## Task Specify RP-LC retention time for "Cc1cc(C)cc(NC(=O)Cn2c(C(C)C)nc3c(c2=O)CCN(Cc2ccccc2)C3)c1" and stop.
## Result 759

## Task Specify RP-LC retention time for O=C(CS(=O)Cc1cnn(-c2ccccc2)c1-n1cccc1)N1CCCCCC1 (stereo not given) and stop.
## Result 902

## Task Specify RP-LC retention time for "CC(=O)N1CCc2nn(CC(=O)Nc3ccc(F)c(F)c3)c(=O)cc2C1" and stop.
## Result 644

## Task Specify RP-LC retention time for "COc1ccc2[nH]c(-c3ccccc3)cc2c1" and stop.
## Result 1040

## Task Specify RP-LC retention time for "COc1ccccc1-n1ccnc(NC(=O)Nc2ccc(F)cc2F)c1=O" and stop.
## Result 938
